Test: in vivo
Set-up: species or system mice
Conditions: C57, mouse, iv, 0.037 MBq, total radioactivity, Skin uptake
reported-property: tissue uptake at 0.5 h (%ID/g)
// return numeric value only (unit: %ID/g, not printed)

# tissue uptake at 0.5 h lookup, item CCCC[C@H](NC(=O)COCCOCCNC(=O)CN1CCN(CC(=O)O)CCN(CC(=O)O)CC1)C(=O)N[C@H]1CC(=O)NCCCC[C@@H](C(N)=O)NC(=O)[C@H](Cc2c[nH]c3ccccc23)NC(=O)[C@H](CCCNC(=N)N)NC(=O)[C@@H](Cc2ccccc2)NC(=O)[C@H](Cc2c[nH]cn2)NC1=O [^67Cu-NOTA-PEG2Nle-CycMSHhex, metal not drawn]
1.77

====

Please go through the items and note down their tissue to tissue ratio at 4 h.
Experiment: in vivo
Parameters: species or system mice
Settings: C57, mouse, iv, 0.037 MBq, total radioactivity, Uptake ratio Tumor/liver
Positions of bridges follow the written chain, without caps; N, C: chain ends. Non-standard residues stand in square brackets, D forms with d. Residues, ends and D or L forms follow the SMILES beside them. *: point of attachment. NOTA = O=C(O)CN1CCN(CC(=O)O)CCN(CC(=O)*)CC1; Nle = CCCC[C@H](N)C(=O)O
API note: the answer field is a bare number with no unit suffix.

Quick one: tissue to tissue ratio at 4 h for CCCC[C@H](NC(=O)COCCOCCNC(=O)CN1CCN(CC(=O)O)CCN(CC(=O)O)CC1)C(=O)N[C@H]1CC(=O)NCCCC[C@@H](C(N)=O)NC(=O)[C@H](Cc2c[nH]c3ccccc23)NC(=O)[C@H](CCCNC(=N)N)NC(=O)[C@@H](Cc2ccccc2)NC(=O)[C@H](Cc2c[nH]cn2)NC1=O [^67Cu-NOTA-PEG2Nle-CycMSHhex, metal not drawn] ?
17.1

Given the entry CCCC[C@H](NC(=O)CNC(=O)CNC(=O)CN1CCN(CC(=O)O)CCN(CC(=O)O)CC1)C(=O)N[C@H]1CC(=O)NCCCC[C@@H](C(N)=O)NC(=O)[C@H](Cc2c[nH]c3ccccc23)NC(=O)[C@H](CCCNC(=N)N)NC(=O)[C@@H](Cc2ccccc2)NC(=O)[C@H](Cc2c[nH]cn2)NC1=O [^67Cu-NOTA-GGNle-CycMSHhex, ^67Cu-NOTA-GlyGlyNle-CycMSHhex, metal not drawn] ({NOTA}-GG[Nle]DH[dF]RWK-NH2; lactam 4-9) , report its measured tissue to tissue ratio at 4 h.
8.62

====

Assay: in vivo
Set-up: species or system mice
Settings: C57, mouse, iv, 0.037 MBq, total radioactivity, Heart uptake
reported-property: tissue uptake at 2 h (%ID/g)
I only need the number, in %ID/g, no unit after it.

Find the recorded tissue uptake at 2 h belonging to CCCC[C@H](NC(=O)COCCOCCNC(=O)CN1CCN(CC(=O)O)CCN(CC(=O)O)CC1)C(=O)N[C@H]1CC(=O)NCCCC[C@@H](C(N)=O)NC(=O)[C@H](Cc2c[nH]c3ccccc23)NC(=O)[C@H](CCCNC(=N)N)NC(=O)[C@@H](Cc2ccccc2)NC(=O)[C@H](Cc2c[nH]cn2)NC1=O [^67Cu-NOTA-PEG2Nle-CycMSHhex, metal not drawn] and report it.
0.79

====

Could you please report measured tissue to tissue ratio at 0.5 h for the items listed next?
Test: in vivo
Design: species or system mice
Settings: C57, mouse, iv, 0.037 MBq, total radioactivity, Uptake ratio Tumor/muscle
Positions of bridges follow the written chain, without caps; N, C: chain ends. Non-standard residues stand in square brackets, D forms with d. Residues, ends and D or L forms follow the SMILES beside them. *: point of attachment. NOTA = O=C(O)CN1CCN(CC(=O)O)CCN(CC(=O)*)CC1; Nle = CCCC[C@H](N)C(=O)O
Output: the number by itself.

Looking for the measured tissue to tissue ratio at 0.5 h of CCCC[C@H](NC(=O)COCCOCCNC(=O)CN1CCN(CC(=O)O)CCN(CC(=O)O)CC1)C(=O)N[C@H]1CC(=O)NCCCC[C@@H](C(N)=O)NC(=O)[C@H](Cc2c[nH]c3ccccc23)NC(=O)[C@H](CCCNC(=N)N)NC(=O)[C@@H](Cc2ccccc2)NC(=O)[C@H](Cc2c[nH]cn2)NC1=O [^67Cu-NOTA-PEG2Nle-CycMSHhex, metal not drawn] , can you help?
18.4

Which tissue to tissue ratio at 0.5 h is listed for CCCC[C@H](NC(=O)CNC(=O)CNC(=O)CN1CCN(CC(=O)O)CCN(CC(=O)O)CC1)C(=O)N[C@H]1CC(=O)NCCCC[C@@H](C(N)=O)NC(=O)[C@H](Cc2c[nH]c3ccccc23)NC(=O)[C@H](CCCNC(=N)N)NC(=O)[C@@H](Cc2ccccc2)NC(=O)[C@H](Cc2c[nH]cn2)NC1=O [^67Cu-NOTA-GGNle-CycMSHhex, ^67Cu-NOTA-GlyGlyNle-CycMSHhex, metal not drawn] ({NOTA}-GG[Nle]DH[dF]RWK-NH2; lactam 4-9) ?
32.5

Ref: paper PMC10216305
